Values from patent US20240016931A1

Below is a list of entries, each paired with its recorded EC50 value.
- TARGET_ENTITY: T1, His-tagged human TSLP antigen (huTSLP-his) (human)
- T1 construct: Secreted from HEK293E and purified on nickel; whole entry named; also called Human TSLP-his
- TEST_METHOD_NOTES: ELISA, coated huTSLP-his;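 also: binding of antibodies to plate-bound TSLP read as absorbance at 450 nm after TMB colour development, EC50 derived from binding curves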
Field format: number, assumed pM, no unit text.

- BINDER: "AMG157 (tezepelumab, anti-TSLP antibody) (antibody, human IgG2, lambda, V domains shown, positive control) VH: QMQLVESGGGVVQPGRSLRLSCAASGFTFRTYGMHWVRQAPGKGLEWVAVIWYDGSNKHYADSVKGRFTITRDNSKNTLNLQMNSLRAEDTAVYYCARAPQWELVHEAFDIWGQGTMVTVSS VL: SYVLTQPPSVSVAPGQTARITCGGNNLGSKSVHWYQQKPGQAPVLVVYDDSDRPSWIPERFSGSNSGNTATLTISRGEAGDEADYYCQVWDSSSDHVVFGGGTKLTVLG"
  EC50 (pM): 722

Query binder follows.
Q: Give the measured EC50 of hu179-25 (antibody, human IgG1, kappa, V domains shown, IgG1-YTE, kappa) VH: EVQLVQSGAEVKKPGSSVKVSCKASGYTFSNYLIEWVRQAPGQGLEWIGVIDPGNGDTNYNENFKGRATLTADKSTSTAYIELSSLRSEDTAVYYCAREDNTGTAFDYWGQGTTVTVSS VL: DIVMTQSPDSLAVSLGERATINCKASQSVSSDVTWYQQKPGQSPKLLIYEVSNHYTGVPDRFSGSGSGTDFTLTISSLQAEDVAVYYCQQHHRFPLTFGQGTKLEIKR .
A: 131
